Target: UniProtKB P32245
Experiment: Intrinsic activity at human MC4R expressed in HEK293 cells assessed as cAMP accumulation relative to alphaMSH
Format: functional, cell-based
assay-metric: Intrinsic activity (%)
The response must be a number in % with no trailing unit.

Lab request: please report Intrinsic activity under test system UniProtKB P32245 for CC(C)[C@H](N)c1cccc(F)c1N1CCN(C(=O)[C@@H]2CN(C(C)C)C[C@H]2c2ccc(Cl)cc2)CC1 68

For UniProtKB P32245, provide Intrinsic activity of CC(C)C[C@H](NC(=O)C1CNC1)c1cc(C(F)(F)F)ccc1N1CCN(C(=O)[C@@H]2CN(C(C)C)C[C@H]2c2ccc(Cl)cc2)CC1 please. 80

Could you share what Intrinsic activity was measured for CNCC(=O)N[C@H](c1cccc(F)c1N1CCN(C(=O)[C@@H]2CN(C(C)C)C[C@H]2c2ccc(Cl)cc2)CC1)C(C)C , tested on UniProtKB P32245? 114

Provide value of Intrinsic activity for this record tested with UniProtKB P32245: Cc1ccc(N2CCN(C(=O)[C@@H]3CN(C(C)C)C[C@H]3c3ccc(Cl)cc3)CC2)c([C@@H](N)C(C)C)c1 99

----------
Target: Melanocortin receptor 4 (Homo sapiens, UniProt P32245)
Sequence (P32245 whole entry): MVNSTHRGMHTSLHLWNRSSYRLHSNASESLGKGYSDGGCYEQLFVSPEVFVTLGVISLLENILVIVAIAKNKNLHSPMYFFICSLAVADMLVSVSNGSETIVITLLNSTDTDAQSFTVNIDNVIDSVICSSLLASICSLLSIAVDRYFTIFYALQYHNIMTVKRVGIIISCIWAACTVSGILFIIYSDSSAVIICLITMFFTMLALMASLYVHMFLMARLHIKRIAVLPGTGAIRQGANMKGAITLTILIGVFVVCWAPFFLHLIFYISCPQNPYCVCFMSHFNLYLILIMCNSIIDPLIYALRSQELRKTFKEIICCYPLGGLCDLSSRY
Experiment: Intrinsic activity at human MC4R expressed in HEK293 cells assessed as cAMP accumulation relative to alphaMSH
Format: functional, cell-based
assay-metric: Intrinsic activity
The answer consists of two parts: a number and, after it, its unit.

Which Intrinsic activity value belongs to CNCC(=O)N[C@@H](CC(C)C)c1cc(C(F)(F)F)ccc1N1CCN(C(=O)[C@@H]2CN(C(C)C)C[C@H]2c2ccc(Cl)cc2)CC1 ? 63%

Can you look up the measured Intrinsic activity of CC(C)C[C@H](NC(=O)[C@H](C)N)c1cc(C(F)(F)F)ccc1N1CCN(C(=O)[C@@H]2CN(C(C)C)C[C@H]2c2ccc(Cl)cc2)CC1 for me? 104%

Query: Intrinsic activity; subject: CC(C)C[C@H](NC(=O)CCN)c1cc(C(F)(F)F)ccc1N1CCN(C(=O)[C@@H]2CN(C(C)C)C[C@H]2c2ccc(Cl)cc2)CC1 95%

Requested field: Intrinsic activity. Item: CC(C)N1C[C@@H](C(=O)N2CCN(c3ccccc3Cn3ccnc3)CC2)[C@H](c2ccc(Cl)cc2)C1 52%

----------
assay-metric: pKi
Reminder that pKi is minus the log10 of a molar concentration.

Given the entry CNCCNCc1ccccc1N1CCN(C(=O)[C@@H]2CN(C(C)C)C[C@H]2c2ccc(Cl)cc2)CC1 , what pKi was observed with Melanocortin receptor 4 (Homo sapiens)? 6.57

What is its pKi for Melanocortin receptor 4 (Homo sapiens)? Entry: CNCC(=O)N[C@H](c1cccc(F)c1N1CCN(C(=O)[C@@H]2CN(C(C)C)C[C@H]2c2ccc(Cl)cc2)CC1)C(C)C 7.96

Field: pKi (Melanocortin receptor 4 (Homo sapiens)). Entry: CC(C)C[C@H](NC(=O)CCN(C)C)c1cc(C(F)(F)F)ccc1N1CCN(C(=O)[C@@H]2CN(C(C)C)C[C@H]2c2ccc(Cl)cc2)CC1 8.00

What is its pKi for Melanocortin receptor 4 (Homo sapiens)? Entry: Cc1ccc(N2CCN(C(=O)[C@@H]3CN(C(C)C)C[C@H]3c3ccc(Cl)cc3)CC2)c([C@@H](N)C(C)C)c1 7.92

GET /values?readout=pKi&system=Melanocortin receptor 4 (Homo sapiens)&item= CC(C)N1C[C@@H](C(=O)N2CCN(c3ccccc3CN3CCCCC3)CC2)[C@H](c2ccc(Cl)cc2)C1 6.02

Look up pKi with Melanocortin receptor 4 (Homo sapiens) for this compound: COCCN(C)Cc1ccccc1N1CCN(C(=O)[C@@H]2CN(C(C)C)C[C@H]2c2ccc(Cl)cc2)CC1 6.49

Can you look up pKi on Melanocortin receptor 4 (Homo sapiens) for CC(C)N1C[C@@H](C(=O)N2CCN(c3ccccc3CN(C)C)CC2)[C@H](c2ccc(Cl)cc2)C1 ? 5.92

Query for Melanocortin receptor 4 (Homo sapiens): what pKi does the record show for CC(C)N1C[C@@H](C(=O)N2CCN(c3ccccc3Cn3ccnn3)CC2)[C@H](c2ccc(Cl)cc2)C1 ? 6.38

Find the measured pKi: item Cc1ccc(N2CCN(C(=O)[C@@H]3CN(C(C)C)C[C@H]3c3ccc(Cl)cc3)CC2)c([C@@H](NC(=O)CN(C)C)C(C)C)c1 , target or system Melanocortin receptor 4 (Homo sapiens). 8.15

For the record CC(C)[C@H](N)c1cccc(F)c1N1CCN(C(=O)[C@@H]2CN(C(C)C)C[C@H]2c2ccc(Cl)cc2)CC1 , what value of pKi is listed for Melanocortin receptor 4 (Homo sapiens)? 7.68

Notebook entry, Melanocortin receptor 4 (Homo sapiens) assay: pKi of CC(C)N1C[C@@H](C(=O)N2CCN(c3ccccc3C#N)CC2)[C@H](c2ccc(Cl)cc2)C1 = ? 5.32

What reported pKi corresponds to CC(=O)N[C@H](c1cc(C)ccc1N1CCN(C(=O)[C@@H]2CN(C(C)C)C[C@H]2c2ccc(Cl)cc2)CC1)C(C)C on Melanocortin receptor 4 (Homo sapiens)? 7.33

Entry CC(C)CN(Cc1ccccc1N1CCN(C(=O)[C@@H]2CN(C(C)C)C[C@H]2c2ccc(Cl)cc2)CC1)CC(C)C , system Melanocortin receptor 4 (Homo sapiens): what pKi was measured? 5.96

Give the reported pKi for CC(C)C[C@H](NC(=O)CN(C)C)c1cc(C(F)(F)F)ccc1N1CCN(C(=O)[C@@H]2CN(C(C)C)C[C@H]2c2ccc(Cl)cc2)CC1 (system: Melanocortin receptor 4 (Homo sapiens)). 7.76

Param readout= pKi; system= Melanocortin receptor 4 (Homo sapiens); entry= CC(C)N1C[C@@H](C(=O)N2CCN(c3ccccc3CNc3ccccc3N)CC2)[C@H](c2ccc(Cl)cc2)C1 ; returns value. 5.85

----------
assay-metric: Ki (nM)
Hi! Could you send only the number? It should be in nM, unit omitted.

Please state recorded Ki (tested on Melanocortin receptor 4 (Homo sapiens, UniProt P32245)) of CC(C)CNCc1ccccc1N1CCN(C(=O)[C@@H]2CN(C(C)C)C[C@H]2c2ccc(Cl)cc2)CC1 510

What Ki appears in the records for this compound with Melanocortin receptor 4 (Homo sapiens, UniProt P32245)? CC(C)N1C[C@@H](C(=O)N2CCN(c3ccccc3Cn3ccnc3)CC2)[C@H](c2ccc(Cl)cc2)C1 220

For Melanocortin receptor 4 (Homo sapiens, UniProt P32245), provide Ki of CC(C)N1C[C@@H](C(=O)N2CCN(c3ccccc3CN(C)C3CNC3)CC2)[C@H](c2ccc(Cl)cc2)C1 please. 240

Lab request: please report Ki under test system Melanocortin receptor 4 (Homo sapiens, UniProt P32245) for COc1ccccc1N1CCN(C(=O)[C@@H]2CN(C(C)C)C[C@H]2c2ccc(Cl)cc2)CC1 520

----------
assay-metric: pKi
pKi field: float, defined as -log10 of concentration (mol/L).

I'm curious: which pKi was measured for Cc1ccc(N2CCN(C(=O)[C@@H]3CN(C(C)C)C[C@H]3c3ccc(Cl)cc3)CC2)c([C@@H](NC(=O)CCN(C)C)C(C)C)c1 tested on Melanocortin receptor 4 (Homo sapiens, UniProt P32245)? 8.33

Short answer please: pKi, Melanocortin receptor 4 (Homo sapiens, UniProt P32245), entry CC(C)N1C[C@@H](C(=O)N2CCN(c3ccccc3CN)CC2)[C@H](c2ccc(Cl)cc2)C1 5.96

Param readout= pKi; system= Melanocortin receptor 4 (Homo sapiens, UniProt P32245); entry= CC(C)N1C[C@@H](C(=O)N2CCN(c3ccccc3CN3CCN(C)CC3)CC2)[C@H](c2ccc(Cl)cc2)C1 ; returns value. 6.08

Please tell me: pKi of CNCC(=O)N[C@@H](CC(C)C)c1cc(C(F)(F)F)ccc1N1CCN(C(=O)[C@@H]2CN(C(C)C)C[C@H]2c2ccc(Cl)cc2)CC1 , system Melanocortin receptor 4 (Homo sapiens, UniProt P32245)? 8.11

----------
Answer each item with its documented Ki.
Give the quantity in nM, number only.

GET /values?readout=Ki&system=Melanocortin receptor 4 (Homo sapiens, UniProt P32245)&item= CC(C)N1C[C@@H](C(=O)N2CCN(c3ccccc3CN3CCC(N)CC3)CC2)[C@H](c2ccc(Cl)cc2)C1 92

API: value(readout=Ki, system=Melanocortin receptor 4 (Homo sapiens, UniProt P32245)) for record CC(C)N1C[C@@H](C(=O)N2CCN(c3ccccc3CN3CCCC3)CC2)[C@H](c2ccc(Cl)cc2)C1 550

Record lookup: for Melanocortin receptor 4 (Homo sapiens, UniProt P32245), what Ki belongs to CC(C)CN(Cc1ccccc1N1CCN(C(=O)[C@@H]2CN(C(C)C)C[C@H]2c2ccc(Cl)cc2)CC1)C(=O)CCN ? 450

----------
Molecular target: Melanocortin receptor 4 (Homo sapiens, UniProt P32245)
Test: Agonist activity at human MC4R expressed in HEK293 cells assessed as cAMP accumulation
assay-metric: pEC50
Notebook: values listed as pEC50 are -log10 of the concentration (mol/L).

Could you share what pEC50 was measured for CNCC(=O)N[C@@H](CC(C)C)c1cc(C(F)(F)F)ccc1N1CCN(C(=O)[C@@H]2CN(C(C)C)C[C@H]2c2ccc(Cl)cc2)CC1 , tested on Melanocortin receptor 4 (Homo sapiens, UniProt P32245)? 7.17

Missing value: pEC50, Melanocortin receptor 4 (Homo sapiens, UniProt P32245), entry CC(C)C[C@H](NC(=O)CCN)c1cc(C(F)(F)F)ccc1N1CCN(C(=O)[C@@H]2CN(C(C)C)C[C@H]2c2ccc(Cl)cc2)CC1 . Fill in? 8.34

Could you share what pEC50 was measured for CC(C)C[C@H](NC(=O)CN(C)C)c1cc(C(F)(F)F)ccc1N1CCN(C(=O)[C@@H]2CN(C(C)C)C[C@H]2c2ccc(Cl)cc2)CC1 , tested on Melanocortin receptor 4 (Homo sapiens, UniProt P32245)? 7.28

Give pEC50 (Melanocortin receptor 4 (Homo sapiens, UniProt P32245)) of the following compound: Cc1ccc(N2CCN(C(=O)[C@@H]3CN(C(C)C)C[C@H]3c3ccc(Cl)cc3)CC2)c([C@@H](NC(=O)CCN(C)C)C(C)C)c1 7.80

Request: pEC50, test system Melanocortin receptor 4 (Homo sapiens, UniProt P32245), entry CNCC(=O)N[C@H](c1cccc(F)c1N1CCN(C(=O)[C@@H]2CN(C(C)C)C[C@H]2c2ccc(Cl)cc2)CC1)C(C)C 7.80
